Tested on: NCI-H460 lung
Form entry, call: pick from y (active), n (inactive)

Below are worked cases with known answers.
COc1ccc(/C(=N\O)c2cc(C)c(OC)c(C)c2)cc1O : y
Oc1ccccc1C=Nc1nc(SCc2ccccc2)nc2[nH]ncc12 : n
Nc1nc(N)c2c(n1)NC(c1ccc(F)cc1)C1CCc3ccccc3C1=N2 (stereo unspecified) : n
CCN1C(=O)N(c2ccccc2)C2NC(=S)N(/N=C/C=C/c3ccccc3)C21 (stereo unspecified) : y
OC(CNCC1CCCO1)Cn1c2ccc(Cl)cc2c2cc(Cl)ccc21 (stereo unspecified) : n

Shifting focus to the molecule that follows.
Input: Which outcome did this test record for the molecule O=C(c1ccccc1)C(Br)C(Br)c1cccc([N+](=O)[O-])c1 (stereo unspecified) ?
Output: n

----------
Tested on: NCI-H23 lung
test: NCI tumour cell line growth inhibition, 48 h
Give TGI for every item shown.

Take each entry in turn and give its TGI.
1. COC(=O)CN1SC2(SC13C(C)(C)C(=O)C3(C)C)C(C)(C)C(=O)C2(C)C
2. CN(N)/N=N/c1nc[nH]c1[N+](=O)[O-]
3. Cc1ccc2c(c1)C(C)Cc1c(Cl)ncnc1N2C (configuration not stated)
4. O=C(NCCCCCCNC(=O)OCCSCCn1cc(C(=O)NC(=O)OCc2ccccc2)c(=O)[nH]c1=O)OCCSCCn1cc(C(=O)NC(=O)OCc2ccccc2)c(=O)[nH]c1=O
5. Nc1ccc(S(=O)(=O)Nc2ccc(Nc3c4ccccc4nc4ccccc34)cc2)cc1
6. O=C(c1ccccc1)[C@@H]1C[C@H](Sc2ccccc2)c2cc(Cl)ccc2N1

Output:
1. > 100 µM
2. > 100 µM
3. 22.7 µM
4. > 100 µM
5. 0.732 µM
6. 64.2 µM

Take each entry in turn and give its TGI.
1. COc1ccc2c(c1)Oc1cc(O)ccc1[C@@H]2c1ccccc1C(=O)NC(C)c1ccccc1 (some centres not stated)
2. N=[N+]=CC(=O)CCC(NC(=O)C(CCC(=O)C=[N+]=N)NC(=O)CCC(N)C(=O)O)C(=O)O (configuration not stated)
3. O=C(O)C1C(C(=O)O)C23CC2(C(=O)O)C2(C(=O)O)CCC3=C3CCCC312 (configuration not stated)
4. COc1cc(NC(=O)CSc2nc3ccc(C)cc3c(=O)n2Cc2ccccc2)cc(OC)c1OC
5. CN(C)CC1C(=O)O[C@H]2[C@H]1CC/C(COC(=O)c1cc3ccccc3[nH]1)=C\CC[C@@]1(C)O[C@@H]21 (some centres not stated)
6. COC(=O)CCC1CCC(c2cc(F)ccc2F)(S(=O)(=O)c2ccc(Cl)cc2)CC1 (configuration not stated)
7. C=C1C(=O)O[C@H]2[C@H]1CCC(/C=N/c1ncc(Br)cc1N)=C\CC[C@@]1(C)O[C@@H]21

Output:
["35.5 µM", "> 100 µM", "36.4 µM", "42.3 µM", "8.3 µM", "> 100 µM", "17.2 µM"]

Take each entry in turn and give its TGI.
1. O=C(Cc1ccc(Cl)cc1)Nc1ccc2oc(-c3ccccc3)nc2c1
2. COc1ccc(-n2cc(-c3cc(OC)c(OC)c(OC)c3)nc2SCc2ccccc2)cc1OC
3. Cc1c2c(Cl)c3c(c(Cl)c2c(C)c2c(Cl)c4c(c(Cl)c12)C(c1ccccc1)(c1ccccc1)C4(c1ccccc1)c1ccccc1)C(c1ccccc1)(c1ccccc1)C3(c1ccccc1)c1ccccc1
4. COC(=O)NN=C1C(C)(C)C(=O)C1(C)C

Output:
["> 100 µM", "> 100 µM", "> 100 µM", "> 100 µM"]

Take each entry in turn and give its TGI.
1. Cc1cc2[nH]c(=O)c3c4ccccc4cn3c2cc1C
2. C[n+]1ccc(Nc2ccc(NC(=O)c3ccc(Nc4cc[n+](C)c5ccc([N+](=O)[O-])cc45)cc3[N+](=O)[O-])cc2)cc1
3. O=C(NC1C=Nc2ccc([N+](=O)[O-])cc2NC1=O)c1cc(Cl)cc([N+](=O)[O-])c1 (configuration not stated)
4. CC1=NN(C(=O)CC(=O)Nc2ccc(C)cc2)C(=O)C1N=Nc1ccc(S(=O)(=O)c2ccc(N=NC3C(=O)N(C(=O)CC(=O)Nc4ccc(C)cc4)N=C3C)cc2)cc1 (configuration not stated)

Output:
1: 32.2 µM; 2: > 100 µM; 3: > 100 µM; 4: > 100 µM

Take each entry in turn and give its TGI.
1. O=S(=O)(c1cccc2c(Cl)cccc12)N1CCCNCC1
2. COc1ccccc1C1c2cc3c(cc2OC(O)(CO)C1C(=O)O)OCO3 (configuration not stated) (tested in a mixture with another compound)

Output:
1. 27.1 µM
2. > 100 µM

Take each entry in turn and give its TGI.
1. COc1cccc2c1C(=O)c1c(O)c3c(c(O)c1C2=O)C[C@@](O)(C(=O)CO)C[C@@H]3O[C@H]1C[C@H](N)[C@@H](O)[C@H](C)O1
2. COc1ccc(C(=O)O)c2c(=O)c3cccnc3[nH]c12
3. C/C(=N\NC(=S)N1CCN(C)CC1)c1nc2ncccc2[nH]1
4. O=C(O)CCSC(=O)Nc1ccccc1F
5. Oc1cc(-c2ccc(Cl)cc2)cn2c1nc1ccccc12
6. COc1ccc(N2C(=O)C(C)SC2c2cc3cc(Br)ccc3nc2Cl)cc1 (configuration not stated)
7. CCN(CC)CCn1c2ccccc2c(=O)c2c(O)ccc(O)c21
8. COc1cc([C@H]2CC(=O)C[C@H](c3cc(OC)c(OC)c(OC)c3)C23C(=O)c2ccccc2C3=O)cc(OC)c1OC

Output:
["0.953 µM", "> 100 µM", "> 100 µM", "> 100 µM", "> 100 µM", "> 100 µM", "62.2 µM", "> 100 µM"]

Take each entry in turn and give its TGI.
1. CC(C)(C)OC(=O)NC(CCC(=O)OCc1ccccc1)C(=O)NCCCO (configuration not stated)
2. Cc1[nH]c(=O)n2c(C)nnc2c1C(=O)Nc1cc(Cl)cc(Cl)c1
3. C[N+]1(C)C/C(=C\c2ccccc2)C(=O)/C(=C/c2ccccc2)C1
4. CN(Cc1cccc2ccccc12)Cc1cccc2ccccc12
5. COC(=O)C1=C(C(=O)OC)SC(=C(Cl)C(=S)Nc2ccccc2O)S1
6. Nc1c(C(=O)Nc2ccc(C3=NCCN3)cc2)cccc1C(=O)Nc1ccc(C2=NCCN2)cc1

Output:
1. > 100 µM
2. 53 µM
3. > 100 µM
4. > 100 µM
5. 20.1 µM
6. > 100 µM

----------
Test system: ACHN renal
test: NCI tumour cell line growth inhibition, 48 h; in the data active means GI50 below about 0.43 µM; inactive means the rest
Form entry, call: pick from active, inactive

Below are worked cases with known answers.
C=C(C)[C@@H]1CC[C@]2(C)[C@H](CC=C3[C@@H]4[C@@H](C)[C@H](C)CC[C@]4(C(N)=O)CC[C@]32C)[C@@]1(C)CCC#N : inactive
NCCN.NCCN.O=C([O-])CCl.O=C([O-])CCl.[Co+3].[O-][Cl+3]([O-])([O-])[O-] : inactive
Cc1cc(NCc2cc(Nc3ccnc4cc(Cl)ccc34)ccc2F)nc(N2CCN(C)CC2)n1 : inactive
COc1cc2c(cc1OCCCCCOc1ccc(-n3c(C)nc4ccccc4c3=O)cc1)N=C[C@@H]1CCCN1C2=O : active
COc1ccc(S(=O)(=O)Nc2cc(/C=C\c3cc(OC)c(OC)c(OC)c3)ccc2OC)cc1 : active
COc1cc(Cl)cc(-c2nn(-c3cccc(NC(=O)Nc4cc(C(F)(F)F)cc(C(F)(F)F)c4)c3)cc2-c2ccncc2)c1 : active
Cc1cc(=O)[nH]c2cc3c(c4c(n3Cc3ccc(Cl)cc3Cl)CC(C)(C)CC4=O)c(O)c12 : inactive
CCCCCCCCCCC(C(O)c1ccccc1)N1CCCCC1 (configuration not stated) : inactive
O=P(CCCCP(=O)(c1ccccc1)c1ccccc1)(c1ccccc1)c1ccccc1.[Cl][Sn]([Cl])([c]1ccccc1)[c]1ccccc1 : inactive
COc1cc(NC(=O)CSc2nc3ccc(C)cc3c(=O)n2Cc2ccccc2)cc(OC)c1OC : inactive

Input: Which outcome did this test record for the molecule COc1ccc(/C(=N\O)c2cc(C)c(OC)c(C)c2)cc1O ?
Output: active

Input: Also CCC[CH2][Sn]([CH2]CCC)([CH2]CCC)[O]C(=O)c1ccc(Cl)cc1Cl ?
Output: active

----------
Test system: 786-0 renal
test: NCI tumour cell line growth inhibition, 48 h
assay-metric: TGI (µM)
Answers are plain numbers, in µM.

CCN(CC)CCn1c2ccccc2c(=O)c2c(O)ccc(O)c21 : 53.8

Now let's try a different one.
Input: Hi! What's the reported TGI for CCOC(=O)[C@@H]1CCN2CN(c3ccc(OC)cc3)N=C(c3ccccc3)[C@@]12c1ccccc1 on 786-0 renal?
Output: 51.7

----------
System: SNB-19 CNS
test: NCI tumour cell line growth inhibition, 48 h
assay-metric: TGI

Field: example entries. Status: answers known.
COc1ccc(/C=C(\C#N)n2nnc3ccccc32)cc1 : 13.3 µM
O=C(c1ccccc1)C(Br)C(Br)c1cccc([N+](=O)[O-])c1 (configuration not stated) : 12.9 µM
COc1ccccc1N1CCN(CCc2c[nH]c3cc4c(cc23)OCO4)CC1 : > 100 µM
COc1ccc(N2C(=O)C(C)SC2c2cc3cc(Br)ccc3nc2Cl)cc1 (configuration not stated) : > 100 µM
CN1CC[C@]2(C)c3cc(O)ccc3CC3CCCC1C32C (some centres not stated) : > 100 µM
COc1c(Br)cc(/C=C(\C#N)c2cccnc2)cc1Br : > 100 µM

Take each entry in turn and give its TGI.
1. Cc1cc(NS(=O)(=O)c2ccc(NC(=O)c3ccc(Cl)c4c(Nc5ccc(S(=O)(=O)N=C(N)N)cc5)c5ccccc5nc34)cc2)no1
2. C/C(=N\NC(=S)N1CCN(C)CC1)c1nc2ncccc2[nH]1
3. Cc1c2c(Cl)c3c(c(Cl)c2c(C)c2c(Cl)c4c(c(Cl)c12)C(c1ccccc1)(c1ccccc1)C4(c1ccccc1)c1ccccc1)C(c1ccccc1)(c1ccccc1)C3(c1ccccc1)c1ccccc1
4. COc1ccc(CC(=O)NCCc2ccc(OC)c(OC)c2)cc1Br
5. Cc1cc2nc(N3C(=O)/C(=C/c4ccccc4S)N=C3c3ccccc3)sc2cc1C
6. CN(C)C=[N+]=[N-]

Output:
1: > 100 µM; 2: > 100 µM; 3: > 100 µM; 4: > 100 µM; 5: > 100 µM; 6: > 100 µM

Take each entry in turn and give its TGI.
1. Cn1c(Cl)cn2c3nc4ccccc4nc3c(=O)c(C#N)c12
2. CCOC(=O)/C(=C\c1cccs1)P(=O)(OCC)OCC

Output:
["> 100 µM", "> 100 µM"]

Take each entry in turn and give its TGI.
1. COC(=O)C1(C(=O)OC)Cc2ccc(C)cc2C2=C1C(=O)c1ccccc1C2=O
2. O=c1[nH]c(=O)c2cc(C3CC(O)C(CO)O3)ccc2[nH]1 (configuration not stated)

Output:
1: > 100 µM; 2: > 100 µM

Take each entry in turn and give its TGI.
1. CN(C)CCCNc1c(C#N)[n+]([O-])c2cc(Cl)ccc2[n+]1[O-]
2. CC(C)COCC(CN(Cc1ccccc1)c1ccccc1)N1CCCC1 (configuration not stated)
3. Oc1ccc(Cc2nccc3cc(O)c(O)cc23)cc1O
4. O=C1C2C(c3ccccc3)NC(c3ccccc3)C1C(c1ccccc1)NC2c1ccccc1 (configuration not stated)
5. CN(C(=O)C1CCCCCC1=O)c1ccccc1Cl (configuration not stated)
6. CCOc1cc2c(cc1O)CC[C@@H]1[C@@H]2CC[C@]2(C)C(N)CC[C@@H]12 (some centres not stated)

Output:
1: > 100 µM; 2: 12.2 µM; 3: > 100 µM; 4: > 100 µM; 5: > 100 µM; 6: 28.2 µM
